Numbers sourced from paper PMC9005804.

Target: GPR105 (Homo sapiens)
Sequence (Q15391 1-338): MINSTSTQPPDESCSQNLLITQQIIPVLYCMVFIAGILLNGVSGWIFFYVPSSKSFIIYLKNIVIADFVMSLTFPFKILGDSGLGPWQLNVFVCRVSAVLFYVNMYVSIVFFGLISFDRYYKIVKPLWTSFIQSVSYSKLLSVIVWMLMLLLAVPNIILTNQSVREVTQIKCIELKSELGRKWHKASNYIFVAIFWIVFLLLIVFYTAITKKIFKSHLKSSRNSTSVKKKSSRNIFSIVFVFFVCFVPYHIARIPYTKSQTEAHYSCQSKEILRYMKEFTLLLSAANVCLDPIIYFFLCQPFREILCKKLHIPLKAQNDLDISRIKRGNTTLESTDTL
Assay: cAMP-Glo luminescence assay in HEK293-hGPR105 cells (forskolin plus UDPG stimulated), antagonism

| query.smiles | IC50 / µM |
| --- | --- |
| C/C=C/C#CC#C[C@@H](O)[C@@H](/C=C/CCCO)O[C@@H]1O[C@H](CO)[C@@H](O)[C@H](O)[C@H]1O | 5.1 |
